# test-target: Aspartate--tRNA(Asp/Asn) ligase (Mycobacterium tuberculosis (strain ATCC 25618 / H37Rv)) (UniProt P9WFW3)
# Sequence (whole entry): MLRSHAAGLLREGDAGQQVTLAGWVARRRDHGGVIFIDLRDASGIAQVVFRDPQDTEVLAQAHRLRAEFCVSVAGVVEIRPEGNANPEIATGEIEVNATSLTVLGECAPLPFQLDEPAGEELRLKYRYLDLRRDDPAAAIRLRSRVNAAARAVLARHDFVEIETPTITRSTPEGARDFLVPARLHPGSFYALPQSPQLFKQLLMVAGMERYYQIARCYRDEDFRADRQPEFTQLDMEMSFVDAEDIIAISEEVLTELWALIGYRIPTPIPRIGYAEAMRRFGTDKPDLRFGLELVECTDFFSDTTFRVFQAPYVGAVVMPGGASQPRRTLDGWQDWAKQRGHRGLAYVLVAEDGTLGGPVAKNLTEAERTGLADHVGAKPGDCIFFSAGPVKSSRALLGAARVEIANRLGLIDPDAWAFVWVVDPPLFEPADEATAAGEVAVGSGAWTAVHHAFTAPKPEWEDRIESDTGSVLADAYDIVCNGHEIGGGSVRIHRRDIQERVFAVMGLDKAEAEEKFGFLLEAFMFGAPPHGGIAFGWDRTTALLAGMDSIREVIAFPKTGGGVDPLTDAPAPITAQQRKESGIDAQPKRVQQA
# test-details: Assay for Asp RNA synthetase-1 from Mycobacterium tuberculosis
# Type: functional
# Design: scale not given: in the data most compounds retested in dose-response had high values
# measurement-context: 30 µM
observation-type: Percent Effect (%)
Numbers only, in %.

Some solved cases for reference:
Cc1n[nH]c(C2CN(C(=O)c3cc(Cl)c[nH]3)CCO2)n1 (configuration not stated) : 2.37
CCOc1ccccc1C(=O)NS(=O)(=O)c1ccc2c(c1)OCCCO2 : -0.534
Cn1cc(CN2CCn3cc(CNC(=O)C4CCC4)nc3C2)cn1 : 1.34
O=C(NCc1ccccn1)[C@@H]1CCO[C@@H]2CCN(Cc3ccoc3)C[C@H]21 : 7.04
COCC(=O)N1CCN(C(=O)c2scnc2C)CC1 : -5.75

List reported Percent Effect for each of these compounds:
1. CC(=O)N1CCCN(C(=O)c2oc(Br)cc2C)CC1
2. Cc1cc(C(=O)N2CCCC(c3noc(C)n3)C2)[nH]n1 (configuration not stated)
3. CC[C@@H]1N(Cc2ccsc2)CCC[C@]12CCC(=O)N2C
4. Cn1ccnc1CN1CCN(CC(=O)NCC(F)(F)F)CC1
5. CCCc1nc(C)cc(N2CCC3(CCC(=O)N(CCOC)C3)CC2)n1
6. COCCC1COC2(CCN(C(=O)c3ccco3)CC2)C1 (configuration not stated)
7. NC(=O)c1ccc2c(c1)nc1n2CCN(Cc2ccccc2)C1

1. -0.167
2. -4.2
3. -1.82
4. 1.97
5. -4.22
6. -0.368
7. 3.29
